We begin with a simple list: items and their reported koff.
target: T1, recombinant C-terminally truncated RSV (A2 strain) F protein (RSV (A2 strain), UniProt P03420 26-524); assay: SPR (BIAcore), IgG over immobilised F
T1 construct: extracellular domain; also called truncated F protein; extracellular domain of the F protein from RSV A2
T1 sequence (P03420 26-109, chain 1 of 2): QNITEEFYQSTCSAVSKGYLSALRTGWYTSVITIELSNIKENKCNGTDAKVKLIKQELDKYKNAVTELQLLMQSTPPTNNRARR
T1 sequence (P03420 137-524, chain 2 of 2): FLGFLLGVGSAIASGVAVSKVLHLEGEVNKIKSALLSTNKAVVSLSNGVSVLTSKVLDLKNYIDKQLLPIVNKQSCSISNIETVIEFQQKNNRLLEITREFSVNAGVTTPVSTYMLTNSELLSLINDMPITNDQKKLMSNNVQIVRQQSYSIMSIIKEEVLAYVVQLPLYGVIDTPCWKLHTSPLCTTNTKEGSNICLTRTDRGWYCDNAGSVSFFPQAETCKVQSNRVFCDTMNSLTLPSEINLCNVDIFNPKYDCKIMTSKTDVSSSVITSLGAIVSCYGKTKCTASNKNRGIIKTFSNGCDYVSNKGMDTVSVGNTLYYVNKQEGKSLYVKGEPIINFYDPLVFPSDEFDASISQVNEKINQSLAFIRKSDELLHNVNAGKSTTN
State just the number; it will be interpreted in s⁻¹.

Guide cases for koff, answers given:
Binder	Display Unit	koff
A1e9 IgG (antibody, V domains shown, also called Ale9) VH: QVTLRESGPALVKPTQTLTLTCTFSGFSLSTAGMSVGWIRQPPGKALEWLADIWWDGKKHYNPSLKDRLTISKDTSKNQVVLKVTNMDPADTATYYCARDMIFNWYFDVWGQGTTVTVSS VL: DIQMTQSPSTLSASVGDRVTITCSLSSRVGYMHWYQQKPGKAPKLLIYDTFKLSSGVPSRFSGSGSGTEFTLTISSLQPDDFATYYCFQGSGYPFTFGGGTKVEIKR	s⁻¹	0.000143
A12a6 IgG (antibody, V domains shown) VH: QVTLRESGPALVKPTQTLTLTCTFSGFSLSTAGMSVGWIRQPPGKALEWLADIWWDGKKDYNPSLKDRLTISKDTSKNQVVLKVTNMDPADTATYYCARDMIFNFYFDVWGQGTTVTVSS VL: DIQMTQSPSTLSASVGDRVTITCSASSRVGYMHWYQQKPGKAPKLLIYDTFKLSSGVPSRFSGSGSGTEFTLTISSLQPDDFATYYCFQGSGYPFTFGGGTKVEIKR	s⁻¹	1.65e-05
A8c7 IgG (antibody, V domains shown) VH: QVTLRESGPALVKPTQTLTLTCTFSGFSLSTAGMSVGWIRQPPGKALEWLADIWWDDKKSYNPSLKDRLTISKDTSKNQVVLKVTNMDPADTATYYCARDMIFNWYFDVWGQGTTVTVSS VL: DIQMTQSPSTLSASVGDRVTITCSPSSRVGYMHWYQQKPGKAPKLLIYDTRYQSSGVPSRFSGSGSGTEFTLTISSLQPDDFATYYCFQGSGYPFTFGGGTKVEIKR	s⁻¹	8.75e-05

Shift focus to the following entry.
Q) Could you tell me which koff is on file for P12f2 IgG (antibody, V domains shown) VH: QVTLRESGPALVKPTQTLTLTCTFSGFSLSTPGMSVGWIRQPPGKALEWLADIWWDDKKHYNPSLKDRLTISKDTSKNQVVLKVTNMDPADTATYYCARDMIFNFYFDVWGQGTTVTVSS VL: DIQMTQSPSTLSASVGDRVTITCSLSSRVGYMHWYQQKPGKAPKLLIYDTFYLSSGVPSRFSGSGSGTEFTLTISSLQPDDFATYYCFQGSGYPFTFGGGTKVEIKR ?
A) 0.000128
